Data provenance: patent US12103915B2

Test system: NCI-H226 cells
METHOD_DESCRIPTION: Cell growth assay (CellTiter-Glo)
Format: cell-based, human
CONDITION_CONTEXT: Homo sapiens, NCI-H226, 168 h, 7 days treatment, CellTiter-Glo luminescence, read-out: H226 CTG IC50
Catalogue of molecules with associated IC50

Some solved cases for reference:
MOLECULE: Cn1cc2cc(Oc3ccc(C(F)(F)F)cc3)cc([C@@H]3C[C@H]3C(=O)N[C@@H](CO)c3ccccn3)c2n1 (single isomer, unassigned) [Example 59b]
ASSAYED_SYSTEM: NCI-H226 cells
RECORDED_RESULT: 100 to 500 nM
--
MOLECULE: Cn1cc2cc(Oc3ccc(C(F)(F)F)cc3)cc([C@@H]3C[C@H]3C(=O)N3CC[C@H](O)[C@@H](O)C3)c2n1 (single isomer, unassigned) [Example 75a]
ASSAYED_SYSTEM: NCI-H226 cells
RECORDED_RESULT: < 100 nM
--
MOLECULE: CNS(=O)(=O)CCc1cc(Oc2ccc(C(F)(F)F)cc2)cc2cccnc12 [Example 142]
ASSAYED_SYSTEM: NCI-H226 cells
RECORDED_RESULT: 100 to 500 nM
--
MOLECULE: Cn1cc2cc(Oc3ccc(C(F)(F)F)cc3)cc([C@H]3C[C@@H]3C(=O)N3CC4CC3CC4O)c2n1 (single isomer, unassigned) [Example 103b]
ASSAYED_SYSTEM: NCI-H226 cells
RECORDED_RESULT: < 100 nM
--
MOLECULE: Cn1cc2cc(Oc3ccc(C(F)(F)F)cc3)cc([C@H]3C[C@@H]3C(=O)N[C@@H](CO)c3ccccn3)c2n1 (single isomer, unassigned) [Example 59a]
ASSAYED_SYSTEM: NCI-H226 cells
RECORDED_RESULT: 100 to 500 nM

Would you kindly look at the next entry?
Input line: Reported IC50, molecule Cn1cc2cc(-c3ccc(OC(F)(F)F)cc3)cc(C3C[C@H]3C(=O)O)c2n1 (mixture of isomers) [Example 12] : ____
Output line: < 100 nM
